Record form. Attribute: pIC50. Fill in for each entry.
system.name: human IDO1 (Homo sapiens)
test.protocol: IDO inhibition assay in human IDO1/HEK293 cells (IDO1 HEK Human)
reported.conditions: HEK293 cells stably expressing human IDO1; 20 hours incubation; absorbance at 490 nm after Ehrlich reagent
Answers are plain numbers, as −log10 of the molar value.

Example compounds with recorded pIC50:
Cc1ccc(NC(=O)Nc2cc(-c3ccccc3-c3nn[nH]n3)cc3c2OCCCC3c2ccccc2)cc1 (stereo not shown) [Example 1] ... 7.73
O=C(Nc1ccc(Cl)cc1F)Nc1cc(-c2ccccc2-c2nnn[nH]2)cc2c1OCCCC2C1CC1 (single isomer, unassigned) [41 (En. 2)] ... 7.03

So for Cc1ccc(CC(=O)Nc2cc(-c3ccccc3-c3nnn[nH]3)cc3c2OCCCC3C2CC2)cc1 (racemic) [37 (Rac)] , the logged pIC50 turned out to be 6.93

* * *

system.name: human IDO1 (Homo sapiens)
test.protocol: IDO inhibition assay in human IDO1/HEK293 cells (IDO1 HEK Human)
reported.conditions: HEK293 cells stably expressing human IDO1; 20 hours incubation; absorbance at 490 nm after Ehrlich reagent
So I've got a bunch of compounds here, and I need their IC50 values.
Numbers only, in nM.

C=C(C)C1Oc2c(NC(=O)Nc3ccc(C)cc3)cc(-c3ccccc3C(=O)O)cc2C1c1ccccc1 (racemic) ... 26
c1ccc(C2CCCOc3c(Nc4nc5ccccc5o4)cc(-c4ccccc4-c4nnn[nH]4)cc32)cc1 (single isomer, unassigned) [53 (En. 2)] ... 1.3

Each of the following entries comes with a recorded value; kindly state IC50 for each.
1. O=C(Nc1ccc(Cl)cc1F)Nc1cc(-c2ccccc2-c2nnn[nH]2)cc2c1OCCCC2C1CC1 (single isomer, unassigned) [41 (En. 1)]
2. CCC(C)C1CCCOc2c(NC(=O)Cc3ccc(C)cc3)cc(-c3ccccc3-c3nnn[nH]3)cc21 (single isomer, unassigned) [30 (Dia. mix 2)]
3. Cc1ccc(NC(=O)Nc2cc(-c3ccccc3-c3nnn[nH]3)cc3c2OC(C)(C)C3)cc1
4. Cc1ccc(-c2nnn[nH]2)c(-c2cc(Nc3ccc(Cl)cc3F)c3c(c2)C(c2ccccc2)CCCO3)c1 (single isomer, unassigned)

A)
25.2
11.7
460
18.5

* * *

Please provide measured IC50 for the entries that follow.
system.name: UniProt:P14902
test.protocol: IDO inhibition assay in human IDO1/HEK293 cells (IDO1 HEK Human)
reported.conditions: HEK293 cells stably expressing human IDO1; 20 hours incubation; absorbance at 490 nm after Ehrlich reagent
Answers are plain numbers, in nM.

Could you report IC50 for every entry in the following list?
1. CC1(C)Oc2c(NC(=O)Nc3ccc(C(F)(F)F)nc3)cc(-c3ccccc3C(=O)O)cc2C1c1ccccc1 (racemic)
2. C=C[C@H]1Oc2c(NC(=O)Nc3ccc(C)cc3)cc(-c3ccccc3-c3nnn[nH]3)cc2[C@@H]1CCC(F)(F)F (single isomer, unassigned) [Example 100]
3. Cc1ccc(NC(=O)Nc2cc(-c3ccccc3-c3nnn[nH]3)cc3c2OCCCC3c2ccccc2)nc1 (single isomer, unassigned) [Example 3]
4. C=C[C@H]1Oc2c(NC(=O)Nc3ccc(C)cc3)cc(-c3ccccc3-c3nnn[nH]3)cc2[C@@H]1CCC(F)(F)F (single isomer, unassigned) [Example 130]
5. Cc1ccc(NC(=O)Nc2cc(-c3ccccc3-c3nnn[nH]3)cc3c2OCCC(C)C3c2ccccc2)cc1 (single isomer, unassigned) [Example 43]

A)
2300
21
35.6
40
30.1

Record Cc1cnc(Nc2cc(-c3ccccc3-c3nnn[nH]3)cc3c2OCCCC3c2ccccc2)nc1 (single isomer, unassigned) [55 (En. 2)] . Reported IC50: 77.6

* * *

system.name: human IDO1 (Homo sapiens)
test.protocol: IDO inhibition assay in human IDO1/HEK293 cells (IDO1 HEK Human)
reported.conditions: HEK293 cells stably expressing human IDO1; 20 hours incubation; absorbance at 490 nm after Ehrlich reagent
Record form. Attribute: pIC50. Fill in for each entry.
Answers are plain numbers, as −log10 of the molar value.

Previously resolved entries follow.
O=C(Cc1ccccc1F)Nc1cc(-c2ccccc2-c2nnn[nH]2)cc2c1OCCCC2C1CC1 (single isomer, unassigned) [40 (En. 2)] ... 7.23
Cc1ccc(-c2nnn[nH]2)c(-c2cc(Nc3ccc(Cl)c(F)c3)c3c(c2)C(c2ccccc2)CCCO3)c1 (single isomer, unassigned) ... 8.08
CC1CCOc2c(Nc3nc4ccccc4[nH]3)cc(-c3ccccc3-c3nnn[nH]3)cc2C1c1ccccc1 (single isomer, unassigned) ... 6.30
Cc1ccc(CC(=O)Nc2cc(-c3ccccc3-c3nnn[nH]3)cc3c2OCCCC3C(C)C)cc1 (single isomer, unassigned) [25 (En. 1)] ... 7.54

Alright, here's another compound for you.
Form: compound = Cc1ccc(Nc2cc(-c3ccccc3-c3nnn[nH]3)cc3c2OCCCC3c2ccccc2)nc1 (single isomer, unassigned) [62 (En. 2)] ; pIC50 = 7.35

* * *

Could you please report measured pIC50 for the items listed next?
system.name: human IDO1 (Homo sapiens, UniProt P14902)
Sequence (P14902 whole entry): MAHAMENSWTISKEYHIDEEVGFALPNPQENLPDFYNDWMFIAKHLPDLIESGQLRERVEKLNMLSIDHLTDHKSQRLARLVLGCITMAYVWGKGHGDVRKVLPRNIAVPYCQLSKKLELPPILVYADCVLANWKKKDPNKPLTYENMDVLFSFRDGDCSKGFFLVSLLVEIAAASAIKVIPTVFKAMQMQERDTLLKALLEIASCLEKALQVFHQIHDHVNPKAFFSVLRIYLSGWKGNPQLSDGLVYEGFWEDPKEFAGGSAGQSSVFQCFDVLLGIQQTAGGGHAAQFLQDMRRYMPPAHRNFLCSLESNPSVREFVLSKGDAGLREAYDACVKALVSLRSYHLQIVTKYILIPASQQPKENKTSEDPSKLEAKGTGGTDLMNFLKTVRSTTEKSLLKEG
test.protocol: IDO inhibition assay in human IDO1/HEK293 cells (IDO1 HEK Human)
reported.conditions: HEK293 cells stably expressing human IDO1; 20 hours incubation; absorbance at 490 nm after Ehrlich reagent
Answers are plain numbers, as −log10 of the molar value.

Would you please look over these solved cases?
Cc1ccc(-c2nnn[nH]2)c(-c2cc(Nc3ccc(Cl)cc3)c3c(c2)C(c2ccccc2)CCCO3)c1 (single isomer, unassigned) ... 8.07
Cc1ccc(NC(=O)Nc2cc(-c3ccccc3-c3nnn[nH]3)cc3c2OCC(F)(F)CC3c2ccccc2)cc1 (racemic) ... 7.30
Cc1ccc(NC(=O)Nc2cc(-c3ccccc3-c3nnn[nH]3)cc3c2OCCC(C)C3c2ccccc2)cc1 (single isomer, unassigned) [Example 44] ... 8.77
Cc1ccc(NC(=O)Nc2cc(-c3cc(C)ccc3C(=O)O)cc3c2OCCCC3c2ccccc2)cc1 (single isomer, unassigned) ... 7.84
Cc1ccc(CC(=O)Nc2cc(-c3ccccc3-c3nnn[nH]3)cc3c2OCCCC3C)cc1 (stereo not shown) ... 6.38

Record pIC50 per entry; entries follow.
1. Cc1ccc(NC(=O)Nc2cc(-c3ccccc3-c3nnn[nH]3)cc3c2OCCC(C)C3c2ccccc2)cc1 (single isomer, unassigned) [Example 46]
2. c1ccc(C2CCCOc3c(Nc4nc5ccccc5o4)cc(-c4ccccc4-c4nnn[nH]4)cc32)cc1 (single isomer, unassigned) [53 (En. 1)]
3. Fc1ccc2nc(Nc3cc(-c4ccccc4-c4nnn[nH]4)cc4c3OCCCC4c3ccccc3)sc2c1 (single isomer, unassigned) [57 (En. 2)]

A)
1. 9.11
2. 6.67
3. 6.72

Hello, I would appreciate it if you could give pIC50 for each entry below.
1. C=CC1Oc2c(NC(=O)Nc3ccc(C)cc3)cc(-c3cc(F)ccc3C(=O)O)cc2C1c1ccccc1 (racemic)
2. Cc1ccc(NC(=O)Nc2cc(-c3ccccc3-c3nc(=O)o[nH]3)cc3c2OCCCC3C2CC2)cc1 (single isomer, unassigned) [Example 33-2]

A)
1: 7.06; 2: 8.10

Can you give me pIC50 for all of these, one by one?
1. CC(=O)NS(=O)(=O)c1ccccc1-c1cc(NC(=O)Nc2ccc(C)cc2)c2c(c1)C(c1ccccc1)CCCO2 (single isomer, unassigned) [59 (En. 2)]
2. Cc1ccc(CC(=O)Nc2cc(-c3ccccc3-c3nnn[nH]3)cc3c2OCCC(C)C3c2ccccc2)cc1 (single isomer, unassigned) [Example 47]
3. Cc1ccc(NC(=O)Nc2cc(-c3ccccc3-c3nnn[nH]3)cc3c2OCCC(C)C3C)cc1 (mixture of isomers)

A)
6.55
6.55
7.84

* * *

system.name: indoleamine 2,3-dioxygenase (IDO) (Homo sapiens)
Construct: replaced with media containing IFNγ (#285-IF/CF, R&D Systems) at a final concentration of 25 ng/mL; endogenous in cells
Sequence (P14902 whole entry): as above
test.protocol: HeLa cell-based indoleamine 2,3-dioxygenase (IDO) assay (IDO1 HeLa)
reported.conditions: HeLa cells, IFNγ 25 ng/mL, 48 hour incubation; kynurenine by absorbance at 480 nm
experimental.readout: log10 IC50 (log10 of the value in nM)
log10 IC50, nM

Here is how some compounds turned out for log10 IC50.
O=C(Nc1ccc(Br)cc1)Nc1cc(-c2ccccc2-c2nnn[nH]2)cc2c1OCC=CC2c1ccccc1 (racemic) [Example 106] ... 1.48
CCc1ccc(NC(=O)Nc2cc(-c3ccccc3-c3nnn[nH]3)cc3c2OCC=CC3CCC(F)(F)F)cc1 (racemic) [Example 107] ... 1.16
Cc1ccc(NC(=O)Nc2cc(-c3ccccc3-c3nnn[nH]3)cc3c2OC[C@@H](C)C[C@H]3c2ccccc2)cc1 (racemic) [Example 109] ... 0.77
COCC(CC(=O)O)c1cc(Nc2ccc(C#N)cc2)c2c(c1)C(C1CC1)CCCO2 (single isomer, unassigned) [131 (dia. 2)] ... 0.32
Cc1ccc(NC(=O)Nc2cc(-c3ccccc3-c3nn[nH]n3)cc3c2OCCCC3c2ccccc2)cc1 (centres unmarked) [Example 1] ... 1.14
Fc1cc(Nc2cc(-c3ccccc3-c3nnn[nH]3)cc3c2OCCCC3c2ccccc2)ccc1Cl (single isomer, unassigned) [Example 72] ... 1.38
Cc1ccc(NC(=O)Nc2cc(-c3ccccc3-c3nnn[nH]3)cc3c2OCC(F)(F)CC3c2ccccc2)cc1 (racemic) [Example 110] ... 1.39
Cc1ccc(-c2nnn[nH]2)c(-c2cc(Nc3ccc4nc(C)sc4c3)c3c(c2)C(c2ccccc2)CCCO3)c1 (single isomer, unassigned) [Example 74] ... 0.71

# per-item lookup of log10 IC50; items listed below
1. Cc1ccc(NC(=O)Nc2cc(-c3ccccc3-c3nnn[nH]3)cc3c2OCCCC3C(C)C)cc1 (single isomer, unassigned) [24 (En. 2)]
2. Cc1ccc(NC(=O)Nc2cc(-c3ccccc3-c3nnn[nH]3)cc3c2OCCCC3C2CC2)cc1 (single isomer, unassigned) [36 (En. 1)]
3. Cc1ccc(NC(=O)Nc2cc(-c3ccccc3-c3noc(=O)[nH]3)cc3c2OCCCC3c2ccccc2)cc1 (single isomer, unassigned) [Example 67]
4. O=C(Nc1ccc(Cl)cc1F)Nc1cc(-c2ccccc2-c2nnn[nH]2)cc2c1OCC=CC2c1ccccc1 (racemic) [Example 105]
5. Cc1ccc(NC(=O)Nc2cc(-c3ccccc3-c3nn[nH]n3)cc3c2OCC=CC3c2ccccc2)cc1 (racemic) [Example 87]

A)
2.21
1.17
0.00
1.74
1.04

For each entry beneath this line, provide reported log10 IC50.
1. Cc1ccc(NC(=O)Nc2cc(-c3cc(F)ccc3C(=O)O)cc3c2OCCCC3c2ccccc2)cc1 (racemic) [Example 108]
2. Cc1ccc(NC(=O)Nc2cc(-c3ccccc3-c3nnn[nH]3)cc3c2OCCCC3C(C)C)cc1 (single isomer, unassigned) [24 (En. 1)]
3. Cc1ccc(NC(=O)Nc2cc(-c3ccccc3-c3nnn[nH]3)cc3c2OCCCC3C2CC2)cc1 (single isomer, unassigned) [36 (En. 2)]
4. CC1=CC(c2ccccc2)c2cc(-c3ccccc3-c3nnn[nH]3)cc(NC(=O)Nc3ccc(C)cc3)c2OC1 (racemic) [Example 92]

A)
1: 2.21; 2: 1.46; 3: 0.56; 4: 0.86
